measured on: … (SEQ ID NO: 1)-HLA-A*02 complex (human)
assay name: SPR (BIAcore) or BLI (Octet) per Example 3, immobilised biotinylated pHLA, 25 C
Lab note - cut at 0.08 nM for Kd: class 1 if strictly below, class 0 if not.

[[record]]
binder = "ImmTAC molecule a79b71 (TCR-anti-CD3 fusion) (TCR, part only; not given: anti-CD3 scFv, linker, constant regions, not shown: a dimerising Fc or GST) TCR alpha, part: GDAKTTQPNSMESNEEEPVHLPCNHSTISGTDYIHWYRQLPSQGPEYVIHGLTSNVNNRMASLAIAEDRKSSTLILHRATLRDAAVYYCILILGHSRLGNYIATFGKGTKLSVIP TCR beta, part: DGGITQSPKYLFRKEGQNVTLSCEQNLNHDAMYWYRQDPGQGLRLIYYSQIMGDEQKGDIAEGYSVSREKKESFPLTVTSAQKNPTAFYLCASSWWTGGSAPIYFGPGTRLTVT"
label = "class 0"

[[record]]
binder = "ImmTAC molecule a79b74 (TCR-anti-CD3 fusion) (TCR, part only; not given: anti-CD3 scFv, linker, constant regions, part only) TCR alpha, part: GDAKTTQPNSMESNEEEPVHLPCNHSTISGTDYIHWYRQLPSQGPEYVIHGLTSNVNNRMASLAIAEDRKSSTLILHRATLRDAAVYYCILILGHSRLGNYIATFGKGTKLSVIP TCR beta, part: DGGITQSPKYLFRKEGQNVTLSCEQNLNHDAMYWYRQDPGQGLRLIYYSQIMGDEQKGDIAEGYSVSREKKESFPLTVTSAQKNPTAFYLCASSWWTGGASPIRFGPGTRLTVT"
label = "class 1"

[[record]]
binder = "ImmTAC molecule a79b66 (TCR-anti-CD3 fusion) (TCR, part only; not given: anti-CD3 scFv, linker, constant regions, not shown: a dimerising Fc or GST) TCR alpha, part: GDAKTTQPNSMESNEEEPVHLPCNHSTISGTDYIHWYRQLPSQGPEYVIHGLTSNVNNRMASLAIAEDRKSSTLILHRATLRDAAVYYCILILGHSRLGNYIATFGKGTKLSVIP TCR beta, part: DGGITQSPKYLFRKEGQNVTLSCEQNLNHDAMYWYRQDPGQGLRLIYYSQIMGDEQKGDIAEGYSVSREKKESFPLTVTSAQKNPTAFYLCASSPWTGGSAPIRFGPGTRLTVT"
label = "class 0"

[[record]]
binder = "ImmTAC molecule a28b75 (TCR-anti-CD3 fusion) (TCR, part only; not given: TCR constant regions and anti-CD3 scFv, not shown: a dimerising Fc or GST) TCR alpha, part: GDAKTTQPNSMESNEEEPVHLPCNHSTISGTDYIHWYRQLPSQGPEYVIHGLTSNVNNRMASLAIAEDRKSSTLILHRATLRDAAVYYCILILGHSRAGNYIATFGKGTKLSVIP TCR beta, part: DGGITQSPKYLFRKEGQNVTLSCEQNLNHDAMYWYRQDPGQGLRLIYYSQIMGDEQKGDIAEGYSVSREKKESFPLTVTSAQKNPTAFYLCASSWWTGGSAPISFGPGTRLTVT"
label = "class 0"

